Molecular target: wild type PKR (Homo sapiens, UniProt P30613)
Sequence (P30613 whole entry): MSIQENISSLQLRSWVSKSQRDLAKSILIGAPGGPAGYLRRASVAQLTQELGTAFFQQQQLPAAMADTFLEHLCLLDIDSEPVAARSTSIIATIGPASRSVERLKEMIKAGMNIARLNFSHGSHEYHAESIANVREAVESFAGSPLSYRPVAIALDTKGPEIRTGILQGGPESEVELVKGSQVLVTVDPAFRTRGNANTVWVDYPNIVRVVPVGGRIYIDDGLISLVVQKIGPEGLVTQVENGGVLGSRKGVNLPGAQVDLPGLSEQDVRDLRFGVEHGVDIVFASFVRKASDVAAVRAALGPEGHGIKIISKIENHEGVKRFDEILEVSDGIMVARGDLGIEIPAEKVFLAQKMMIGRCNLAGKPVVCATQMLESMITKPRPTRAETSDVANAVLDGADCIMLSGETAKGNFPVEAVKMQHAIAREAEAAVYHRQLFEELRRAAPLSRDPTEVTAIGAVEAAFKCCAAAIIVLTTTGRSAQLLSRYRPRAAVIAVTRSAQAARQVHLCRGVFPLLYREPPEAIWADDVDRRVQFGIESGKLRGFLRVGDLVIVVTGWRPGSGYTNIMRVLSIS
Assay: Cell based ATP assay in purified red blood cells (Cell-Titer-Glo)
Set-up: endogenous in cells; host or cells: purified red blood cells from healthy volunteers
Conditions: Table 2; RBCs, overnight at 37° C., ATP levels
Parameter AC50: see the listing below.
reported-property: AC50

{"compound": "Cn1c2nc([S+](C)[O-])sc2c2cnn(Cc3ccc(C(N)=O)cc3)c(=O)c21 (centres unmarked)", "result": "> 1000 nM"}
{"compound": "Cn1c2nc(Cc3cc[nH]n3)sc2c2cnn(Cc3ccc(C#N)cc3)c(=O)c21", "result": "≤ 1000 nM"}
{"compound": "Cc1nc2c(s1)c1cnn(Cc3cccc(N)c3)c(=O)c1n2C", "result": "≤ 1000 nM"}
{"compound": "Cn1c2nc(C(=O)NO)sc2c2cnn(Cc3cccc4[nH]ncc34)c(=O)c21", "result": "> 1000 nM"}
{"compound": "Cn1c2nc([S+](C)[O-])sc2c2cnn(Cc3ccnc(N)n3)c(=O)c21 (centres unmarked)", "result": "> 1000 nM"}
{"compound": "Cn1c2nc(Cc3cccc(CO)c3)sc2c2cnn(Cc3cccc4[nH]ncc34)c(=O)c21", "result": "> 1000 nM"}
{"compound": "CNCc1nc2c(s1)c1cnn(Cc3cccc4[nH]ncc34)c(=O)c1n2C", "result": "> 1000 nM"}
{"compound": "Cn1ccc(Cc2nc3c(s2)c2cnn(Cc4cccc5[nH]ncc45)c(=O)c2n3C)n1", "result": "≤ 1000 nM"}
{"compound": "Cn1c2nc(Cc3cccc(O)c3)sc2c2cnn(Cc3cccc4[nH]ncc34)c(=O)c21", "result": "≤ 1000 nM"}
{"compound": "COc1cccc(Cn2ncc3c4sc(Cc5ccc(C)cc5)nc4n(C)c3c2=O)c1", "result": "≤ 1000 nM"}
{"compound": "Cn1c2nc(S(=O)(=O)Cc3ccccc3)sc2c2cnn(Cc3cccc4[nH]ncc34)c(=O)c21", "result": "> 1000 nM"}
{"compound": "Cc1nc2c(s1)c1cnn(Cc3cccc(NC(N)=O)c3)c(=O)c1n2C", "result": "> 1000 nM"}
{"compound": "Cn1c2nc(Cc3cc[nH]n3)sc2c2cnn(Cc3cccc(C(N)=O)c3)c(=O)c21", "result": "≤ 1000 nM"}
{"compound": "Cn1c2nc(Cc3cc[nH]n3)sc2c2cnn(Cc3ccc4c(c3)OCCO4)c(=O)c21", "result": "≤ 1000 nM"}
{"compound": "Cn1c2nc(S(C)(=O)=O)sc2c2cnn(Cc3cccc4[nH]ncc34)c(=O)c21", "result": "≤ 1000 nM"}
{"compound": "CSc1nc2c(s1)c1cnn(Cc3csc(-n4c(C)ccc4C)n3)c(=O)c1n2C", "result": "> 1000 nM"}
{"compound": "COc1cccc(Cn2ncc3c4sc(C(O)c5ccccc5)nc4n(C)c3c2=O)c1 (centres unmarked)", "result": "≤ 1000 nM"}
{"compound": "COc1cccc(Cn2ncc3c4sc(Cc5ccc(Cl)cc5)nc4n(C)c3c2=O)c1", "result": "≤ 1000 nM"}
{"compound": "COc1cccc(Cn2ncc3c4sc(S(=O)(=O)c5ccccc5)nc4n(C)c3c2=O)c1", "result": "> 1000 nM"}
{"compound": "Cn1c2nc(C(N)=O)sc2c2cnn(Cc3cccc4[nH]ncc34)c(=O)c21", "result": "> 1000 nM"}
{"compound": "COc1ccccc1Cn1ncc2c3sc(C)nc3n(C)c2c1=O", "result": "> 1000 nM"}
{"compound": "Cc1nc2c(s1)c1cnn(Cc3ccc4cc[nH]c4c3)c(=O)c1n2C", "result": "≤ 1000 nM"}
{"compound": "Cn1c2nc(Cc3ccc(C(N)=O)cc3)sc2c2cnn(Cc3cccc4[nH]ncc34)c(=O)c21", "result": "> 1000 nM"}
{"compound": "COc1cccc(Cn2ncc3c4sc(C(F)(F)c5ccccc5)nc4n(C)c3c2=O)c1", "result": "≤ 1000 nM"}
{"compound": "Cc1nc2c(s1)c1cnn(Cc3cccc4cn[nH]c34)c(=O)c1n2C", "result": "> 1000 nM"}
{"compound": "Cn1c2nc(NCc3ccccc3)sc2c2cnn(Cc3cccc4[nH]ncc34)c(=O)c21", "result": "> 1000 nM"}
